Items are presented alongside their recorded hemolysis at 1 h, 0.1 mg/ml.
Test: Hemolytic activity in human erythrocytes at 0.1 mg/ml incubated for 60 mins by spectrophotometric analysis
Type: ADME, cell-based, Erythrocyte
Details: read-out: Activity

Request: GET /values?readout=hemolysis at 1 h, 0.1 mg/ml&item= "CCSc1nc2c(c(=O)n(C)c(=O)n2C)n1C"
Result: 0 to 5%

---
Request: Any idea what its hemolysis at 1 h, 0.1 mg/ml is? The molecule is "CSc1nc2c(c(=O)n(C)c(=O)n2C)n1C"
Result: 0 to 5%

Request: Entry under review: "Cn1c(=O)c2c(nc(SC(=S)N3CCCC3)n2C)n(C)c1=O" . Reported hemolysis at 1 h, 0.1 mg/ml?
Result: 0 to 5%

Request: Param item = "Cn1c(=O)c2c(ncn2C)n(C)c1=O" ; retrieve measured hemolysis at 1 h, 0.1 mg/ml.
Result: 0 to 5%

Request: Give the measured hemolysis at 1 h, 0.1 mg/ml of "Cn1c(=O)c2c(nc(SC(C)(C)C)n2C)n(C)c1=O" .
Result: 0 to 5%

Request: Reported hemolysis at 1 h, 0.1 mg/ml for "CCCSc1nc2c(c(=O)n(C)c(=O)n2C)n1C" : what is it?
Result: 0 to 5%

Request: Give its hemolysis at 1 h, 0.1 mg/ml value. Item: "Cn1c(=S)c2c(ncn2C)n(C)c1=S"
Result: 0 to 5%

----------
Measured hemolysis at 1 h, 0.1 mg/ml of individual entries
Experiment: Hemolytic activity in human erythrocytes at 0.1 mg/ml incubated for 60 mins by spectrophotometric analysis
Type: ADME, cell-based, Erythrocyte
Settings: read-out: Activity

Please review the entries below; each comes with its answer.
Request: What measured hemolysis at 1 h, 0.1 mg/ml goes with "Cn1c(=O)c2c(nc(Sc3ccccc3)n2C)n(C)c1=O" ?
Result: 57.2%

Request: Dear colleague, I am looking for the recorded hemolysis at 1 h, 0.1 mg/ml of the following compound: "CC(C)Sc1nc2c(c(=O)n(C)c(=O)n2C)n1C"
Result: 0 to 5%

Next, consider the following compound.
Request: What measured hemolysis at 1 h, 0.1 mg/ml goes with "Cn1c(=S)c2c(ncn2C)n(C)c1=O" ?
Result: 0 to 5%

----------
Assay: Hemolytic activity in human erythrocytes at 0.025 mg/ml incubated for 60 mins by spectrophotometric analysis
Format: ADME, cell-based, Erythrocyte
Settings: read-out: Activity
Assay endpoint: hemolysis at 1 h, 0.025 mg/ml

Request: Which measured hemolysis at 1 h, 0.025 mg/ml value corresponds to "Cn1c(=O)c2c(nc(Sc3ccccc3)n2C)n(C)c1=O" ?
Result: < 5%

----------
Listing of entries alongside the reported Activity.
Assay: Antioxidant activity assessed as DPPH radical scavenging activity at 0.025 to 0.1 mg/ml incubated for 30 mins in dark by spectrophotometric analysis
Format: functional

Request: Give its Activity value. Item: "Cn1c(=S)c2c(ncn2C)n(C)c1=S"
Result: < 10%

Request: Fill blank: measured Activity of the compound "CSc1nc2c(c(=O)n(C)c(=O)n2C)n1C" is ____.
Result: < 10%

Request: Tell me the measured Activity of "CCCSc1nc2c(c(=O)n(C)c(=O)n2C)n1C" , please.
Result: < 10%

Request: Fill in: Activity of "Cn1c(=O)c2c(nc(SC(C)(C)C)n2C)n(C)c1=O" is ___
Result: < 10%

Request: // returns reported Activity for input "Cn1c(=O)c2c(nc(Sc3ccccc3)n2C)n(C)c1=O"
Result: < 10%

More entries:
Request: Given "Cn1c(=S)c2c(ncn2C)n(C)c1=O" , state its recorded Activity.
Result: < 10%

Request: // Activity lookup, key: "Cn1c(=O)c2c(ncn2C)n(C)c1=O"
Result: < 10%

Request: Activity for "CCSc1nc2c(c(=O)n(C)c(=O)n2C)n1C" ?
Result: < 10%
